assay-system: recombinant human PAI-1 (Homo sapiens, UniProt P05121)
Sequence (P05121 24-402): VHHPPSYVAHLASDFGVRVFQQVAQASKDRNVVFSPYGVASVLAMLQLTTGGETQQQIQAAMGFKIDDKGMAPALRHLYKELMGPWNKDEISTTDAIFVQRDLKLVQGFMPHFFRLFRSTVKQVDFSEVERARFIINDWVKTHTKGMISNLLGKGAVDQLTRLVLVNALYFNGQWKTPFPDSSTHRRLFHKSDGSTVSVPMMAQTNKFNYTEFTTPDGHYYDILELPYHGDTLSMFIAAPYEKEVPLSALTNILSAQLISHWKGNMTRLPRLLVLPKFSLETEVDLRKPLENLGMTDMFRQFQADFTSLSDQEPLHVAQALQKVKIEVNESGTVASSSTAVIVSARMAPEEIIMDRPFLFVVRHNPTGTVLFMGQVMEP
assay-details: Test Example 2: Human PAI-1 Inhibitory Activity (pH 7.4 HEPES buffer, 10 minutes incubation with two-chain tPA)
Type: biochemical
Set-up: purchased Molecular Innovations, Inc
experimental-context: read-out: Inhibition Rate of PAI-1 Activity (%)
Would you mind telling me the reported inhibition at 0.3 µM of each entry?

Give the measured inhibition at 0.3 µM of CCCCCOc1cc(-c2ccc(C(F)(F)F)cc2)ccc1N(CCCCc1ccccc1)C(=O)C(=O)O .
14%

Give the measured inhibition at 0.3 µM of CCCCCOc1ccc(-c2ccc(OC(F)(F)F)cc2)cc1N(CCCOCc1ccccc1)C(=O)C(=O)O .
0%

Give the measured inhibition at 0.3 µM of CCCCCOc1ccc(-c2ccc(OC(F)(F)F)cc2)cc1N(CCCOc1ccccc1)C(=O)C(=O)O .
13%

Give the measured inhibition at 0.3 µM of CC(C)(C)c1ccc(Oc2cc(-c3ccc(OC(F)(F)F)cc3)ccc2/C=C\C(=O)O)cc1 .
11%

Give the measured inhibition at 0.3 µM of CCC(CC)Oc1ccc(N(Cc2ccc(C(C)(C)C)cc2)C(=O)C(=O)O)cc1-c1ccc(OC(F)(F)F)cc1 .
1%

Give the measured inhibition at 0.3 µM of CC(C)(C)c1ccc(COc2ccc(-c3ccc(OC(F)(F)F)cc3)cc2OCC(=O)O)cc1 .
3%

Give the measured inhibition at 0.3 µM of CCCCCOc1ccc(-c2ccc(Cl)cc2)cc1N(CCCCc1ccccc1)C(=O)C(=O)O .
5%

Give the measured inhibition at 0.3 µM of CC(C)(C)c1ccc(COc2ccc(-c3ccc(OC(F)(F)F)cc3)cc2C(=O)O)cc1 .
3%

Give the measured inhibition at 0.3 µM of CC(C)(C)c1ccc(Oc2cc(-c3cccc(C(F)(F)F)c3)ccc2CCC(=O)O)cc1 .
4%

Give the measured inhibition at 0.3 µM of CC(C)(C)c1ccc(CN(C(=O)C(=O)O)c2ccc(Cl)cc2-c2ccc(OC(F)(F)F)cc2)cc1 .
1%

Give the measured inhibition at 0.3 µM of O=C(O)C(=O)N(CCCCc1ccccc1)c1cc(-c2ccc(OC(F)(F)F)cc2)ccc1OC1CCCC1 .
20%

Give the measured inhibition at 0.3 µM of CCCCC(c1ccc(C(C)(C)C)cc1)N(C(=O)C(=O)O)c1ccc(-c2ccc(OC(F)(F)F)cc2)cc1 (stereo not drawn) .
6%

Give the measured inhibition at 0.3 µM of CC(C)(C)c1ccc(CCc2cc(-c3ccc(OC(F)(F)F)cc3)ccc2OCC(=O)O)cc1 .
4%

Give the measured inhibition at 0.3 µM of CCCCCCCCCOc1cc(N(Cc2ccc(C(C)(C)C)cc2)C(=O)C(=O)O)ccc1-c1ccc(OC(F)(F)F)cc1 .
> 99%

Give the measured inhibition at 0.3 µM of CCCCC(Oc1ccc(-c2ccc(OC(F)(F)F)cc2)cc1Oc1ccc(C(C)(C)C)cc1)C(=O)O (stereo not drawn) .
9%

Where these numbers come from: patent EP2272817A1
